property.name: melting point

Task: Identify measured melting point corresponding to Nc1cc2c(cc1[N+](=O)[O-])OCCO2
Output: 150 to 152 °C

Task: Identify measured melting point corresponding to CC(Cl)c1ncc(-c2ccccc2)o1 (configuration not stated)
Output: 54 to 56 °C

Task: Identify measured melting point corresponding to COc1cc(Cl)ccc1C(=O)NN
Output: 178 to 180 °C

Task: Identify measured melting point corresponding to CC(C#N)CNC(=O)OC(C)(C)C (configuration not stated)
Output: 77 to 79 °C

Task: Identify measured melting point corresponding to Cc1nc(-c2ccccc2)c(N)s1
Output: 169 to 171 °C

Task: Identify measured melting point corresponding to N#CCN1CCC(O)CC1
Output: 76 to 78 °C

Task: Identify measured melting point corresponding to Cc1cc(Cl)cc(C)c1C=O
Output: 39 to 41 °C

Task: Identify measured melting point corresponding to Cc1ccc(S(=O)(=O)NC(C)C)cc1C(=O)O
Output: 162 to 164 °C

Task: Identify measured melting point corresponding to O=C(O)c1ccc2c(c1)CC(c1ccccc1)OC2=O (configuration not stated)
Output: 310 to 312 °C

Task: Identify measured melting point corresponding to NC(C(=O)O)c1ccccc1C(F)(F)F (configuration not stated)
Output: 282 to 284 °C

Task: Identify measured melting point corresponding to CC(C)(C)C(=O)Nc1cn[nH]c1
Output: 200 to 202 °C

Task: Identify measured melting point corresponding to Cc1cc(F)cc2c(Cl)c(C#N)cnc12
Output: 137 to 139 °C

Task: Identify measured melting point corresponding to CCOC(=O)c1ccc(S(=O)(=O)N2CCC(C(=O)O)CC2)o1
Output: 170 to 172 °C

Task: Identify measured melting point corresponding to CC(=O)c1c[nH]c2cc(F)ccc12
Output: 222 to 224 °C

Task: Identify measured melting point corresponding to O=[N+]([O-])c1ccc(Cl)c(S(=O)(=O)Cl)c1
Output: 85 to 87 °C

Task: Identify measured melting point corresponding to O=C(NC1CCCCCC1)c1ccco1
Output: 99 to 101 °C

Task: Identify measured melting point corresponding to NS(=O)(=O)c1c[nH]c(=O)[nH]c1=O
Output: 299 to 301 °C

Task: Identify measured melting point corresponding to CN(C)C(=O)c1ccc(Cl)c(S(=O)(=O)Cl)c1
Output: 106 to 108 °C

Task: Identify measured melting point corresponding to CC(O)c1nc2ccc(Cl)cc2n1C (configuration not stated)
Output: 149 to 151 °C

Task: Identify measured melting point corresponding to Nc1c(F)cc(Br)cc1C(=O)O
Output: 214 to 216 °C

Task: Identify measured melting point corresponding to O=C(O)c1ccc(NC(=O)c2cccc(Br)c2)cc1
Output: 271 to 273 °C

Task: Identify measured melting point corresponding to COc1ccc(-c2ccc(CCC(=O)O)o2)cc1
Output: 142 to 144 °C

Task: Identify measured melting point corresponding to O=C(Nc1cccc(S(=O)(=O)C2CCCC2)c1)OCC(F)(F)F
Output: 104 to 106 °C

Task: Identify measured melting point corresponding to CC(C)(C)c1ccc(=O)[nH]n1
Output: 163 to 165 °C

Task: Identify measured melting point corresponding to COC(=O)C(=O)CC(=O)c1ccc(N2CCOCC2)cc1
Output: 164 to 166 °C

Task: Identify measured melting point corresponding to Cc1ccc(C(=O)N(C)c2ccc(O)cc2)cc1
Output: 115 to 117 °C

Task: Identify measured melting point corresponding to N#CCc1nnc2n1CCCCC2
Output: 113 to 115 °C

Task: Identify measured melting point corresponding to Cc1c(C(=O)O)c(O)nc2ccccc12
Output: 254 to 256 °C

Task: Identify measured melting point corresponding to CC1(C2CC2)NC(=O)NC1=O (configuration not stated)
Output: 168 to 170 °C

Task: Identify measured melting point corresponding to CC(C)(C)OC(=O)N1CCN(C(N)=O)C(C(=O)O)C1 (configuration not stated)
Output: 158 to 160 °C

Task: Identify measured melting point corresponding to O=C(O)CCCN1C(=O)CSC1=S
Output: 124 to 126 °C

Task: Identify measured melting point corresponding to CN(C)c1ccnc(N)n1
Output: 157 to 159 °C

Task: Identify measured melting point corresponding to O=C(O)C1CCCCN1c1ncccn1 (configuration not stated)
Output: 156 to 158 °C

Task: Identify measured melting point corresponding to O=C(O)c1ccc(Cl)c2cccnc12
Output: 199 to 201 °C

Task: Identify measured melting point corresponding to COc1ccc(Cl)cc1NC(=O)CC(=O)Nc1cc(Cl)ccc1OC
Output: 98 to 101 °C

Task: Identify measured melting point corresponding to O=C(O)c1ccccc1-c1ncc(-c2ccccc2F)o1
Output: 184 to 186 °C

Task: Identify measured melting point corresponding to O=C(O)c1cnc(-c2ccccc2Cl)s1
Output: 200 to 202 °C
